- system_under_test: Glutamate receptor ionotropic, NMDA 2B (Rattus norvegicus, UniProt Q00960)
- Sequence (Q00960 whole entry): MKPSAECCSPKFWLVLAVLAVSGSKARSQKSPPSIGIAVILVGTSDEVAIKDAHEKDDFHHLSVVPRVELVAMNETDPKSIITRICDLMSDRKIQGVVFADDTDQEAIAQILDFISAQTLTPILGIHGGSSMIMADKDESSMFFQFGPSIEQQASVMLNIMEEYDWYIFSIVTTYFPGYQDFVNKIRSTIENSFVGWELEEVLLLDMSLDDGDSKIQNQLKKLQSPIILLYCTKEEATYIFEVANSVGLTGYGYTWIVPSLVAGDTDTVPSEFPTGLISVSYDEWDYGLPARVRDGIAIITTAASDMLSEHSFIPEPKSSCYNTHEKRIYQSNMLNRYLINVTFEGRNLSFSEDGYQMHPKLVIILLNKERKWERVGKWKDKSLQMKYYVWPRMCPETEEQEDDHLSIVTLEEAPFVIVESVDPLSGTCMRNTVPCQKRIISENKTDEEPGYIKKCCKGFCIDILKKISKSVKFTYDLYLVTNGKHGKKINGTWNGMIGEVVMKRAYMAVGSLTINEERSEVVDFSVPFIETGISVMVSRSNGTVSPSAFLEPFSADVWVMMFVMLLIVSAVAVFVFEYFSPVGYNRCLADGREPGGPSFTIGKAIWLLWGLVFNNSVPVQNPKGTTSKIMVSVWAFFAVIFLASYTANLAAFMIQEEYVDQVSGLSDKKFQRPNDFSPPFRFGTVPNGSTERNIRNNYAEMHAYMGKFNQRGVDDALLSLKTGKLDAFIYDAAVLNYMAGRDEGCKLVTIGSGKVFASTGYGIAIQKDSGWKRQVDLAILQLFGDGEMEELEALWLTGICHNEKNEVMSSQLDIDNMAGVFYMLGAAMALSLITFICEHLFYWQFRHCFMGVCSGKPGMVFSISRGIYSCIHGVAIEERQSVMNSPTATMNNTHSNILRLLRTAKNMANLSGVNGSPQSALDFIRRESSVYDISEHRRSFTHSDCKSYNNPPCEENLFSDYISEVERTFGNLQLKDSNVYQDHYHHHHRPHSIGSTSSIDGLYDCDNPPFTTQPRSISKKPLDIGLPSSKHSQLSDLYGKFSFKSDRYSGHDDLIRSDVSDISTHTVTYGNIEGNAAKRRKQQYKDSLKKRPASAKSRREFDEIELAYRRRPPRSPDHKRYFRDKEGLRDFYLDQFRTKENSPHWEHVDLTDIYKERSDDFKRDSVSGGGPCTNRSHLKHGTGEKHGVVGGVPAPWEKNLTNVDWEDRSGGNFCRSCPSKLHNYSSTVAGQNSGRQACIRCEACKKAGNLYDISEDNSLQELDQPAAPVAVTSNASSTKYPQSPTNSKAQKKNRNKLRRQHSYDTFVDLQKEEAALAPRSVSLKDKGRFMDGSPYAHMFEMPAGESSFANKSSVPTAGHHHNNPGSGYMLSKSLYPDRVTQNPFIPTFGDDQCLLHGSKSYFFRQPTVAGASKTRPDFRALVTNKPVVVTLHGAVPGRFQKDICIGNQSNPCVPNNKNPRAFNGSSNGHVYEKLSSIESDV
Flag rule - Ki less than 30 nM flags True; the remaining entries get False.

Query :: Strictly below 30 nM: is that where Ki of O=C1OC(CCCN2CCN(C(=O)c3c[nH]cn3)CC2)c2ccccc21 (stereo unspecified) sits?
Result :: True

Query :: Strictly below 30 nM: is that where Ki of CN(C)CCCC1OC(=O)c2ccccc21 (stereo unspecified) sits?
Result :: False

Query :: Strictly below 30 nM: is that where Ki of O=C1OC(CCCN2CCN(c3ccc(Br)cc3)CC2)c2ccccc21 (stereo unspecified) sits?
Result :: True

Query :: Strictly below 30 nM: is that where Ki of O=C1OC(CCCN2CCN(C(=O)c3cc4ccncc4[nH]3)CC2)c2ccccc21 (stereo unspecified) sits?
Result :: True

Query :: Strictly below 30 nM: is that where Ki of O=C1OC(CCCN2C[C@H]3C[C@@]3(c3ccc(Cl)c(Cl)c3)C2)c2ccccc21 (stereo partly specified) sits?
Result :: False

Query :: Strictly below 30 nM: is that where Ki of Cc1ccc(N2CCN(CCCC3OC(=O)c4ccc(O)cc43)CC2)cc1 (stereo unspecified) sits?
Result :: True

====

- system_under_test: Glutamate receptor ionotropic, NMDA 2B (Rattus norvegicus) (UniProt Q00960)
- Sequence (Q00960 27-1482 limits assumed): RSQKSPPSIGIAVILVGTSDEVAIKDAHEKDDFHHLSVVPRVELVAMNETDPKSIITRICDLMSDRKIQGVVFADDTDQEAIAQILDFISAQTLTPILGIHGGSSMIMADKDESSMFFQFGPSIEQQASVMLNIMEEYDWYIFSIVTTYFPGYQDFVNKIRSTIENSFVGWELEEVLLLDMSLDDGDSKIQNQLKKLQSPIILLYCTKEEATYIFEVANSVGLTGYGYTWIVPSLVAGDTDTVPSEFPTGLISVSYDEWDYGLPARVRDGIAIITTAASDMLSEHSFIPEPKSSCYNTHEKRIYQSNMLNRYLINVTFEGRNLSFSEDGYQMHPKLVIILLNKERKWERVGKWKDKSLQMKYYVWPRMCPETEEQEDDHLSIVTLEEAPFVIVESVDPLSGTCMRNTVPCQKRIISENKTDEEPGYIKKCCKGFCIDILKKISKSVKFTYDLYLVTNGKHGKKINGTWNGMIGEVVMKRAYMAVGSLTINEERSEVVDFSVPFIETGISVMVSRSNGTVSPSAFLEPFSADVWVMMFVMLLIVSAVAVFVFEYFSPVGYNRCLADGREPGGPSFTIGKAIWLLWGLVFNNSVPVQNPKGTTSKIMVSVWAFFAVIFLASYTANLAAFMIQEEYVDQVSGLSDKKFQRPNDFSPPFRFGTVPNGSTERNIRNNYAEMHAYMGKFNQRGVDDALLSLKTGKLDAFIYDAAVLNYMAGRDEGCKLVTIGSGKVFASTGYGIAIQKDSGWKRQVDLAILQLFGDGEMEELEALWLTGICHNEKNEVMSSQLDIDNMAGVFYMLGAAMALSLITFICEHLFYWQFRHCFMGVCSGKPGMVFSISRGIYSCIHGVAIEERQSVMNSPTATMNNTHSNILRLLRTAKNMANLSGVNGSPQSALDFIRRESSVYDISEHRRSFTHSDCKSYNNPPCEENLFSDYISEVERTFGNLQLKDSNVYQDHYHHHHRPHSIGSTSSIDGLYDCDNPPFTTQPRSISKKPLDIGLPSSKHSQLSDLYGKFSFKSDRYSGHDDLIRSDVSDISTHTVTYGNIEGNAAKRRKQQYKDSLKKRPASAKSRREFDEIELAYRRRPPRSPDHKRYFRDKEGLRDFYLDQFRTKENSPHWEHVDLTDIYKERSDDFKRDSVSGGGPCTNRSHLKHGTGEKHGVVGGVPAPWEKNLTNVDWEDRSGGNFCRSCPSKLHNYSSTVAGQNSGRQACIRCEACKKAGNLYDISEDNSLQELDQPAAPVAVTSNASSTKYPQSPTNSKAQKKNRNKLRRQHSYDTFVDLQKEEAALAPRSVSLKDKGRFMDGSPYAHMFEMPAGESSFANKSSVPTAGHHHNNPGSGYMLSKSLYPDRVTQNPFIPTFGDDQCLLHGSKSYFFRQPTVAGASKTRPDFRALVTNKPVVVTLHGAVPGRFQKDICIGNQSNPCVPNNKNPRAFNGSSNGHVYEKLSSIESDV
- method_summary: Antagonist activity at rat GluN2B NMDA receptor at 50 nM incubated for 120 mins by competitive binding assay relative to control
- Design: scale not given: the % may be the effect or the level left
Provide the recorded Activity for the entries that follow.
Only the number, expressed in %, is required.

Query :: I am curious: what Activity value has been reported for O=C1OC(CCCN2CCc3ccccc3C2)c2ccccc21 (stereo not drawn) ?
Result :: 22.2

Query :: I am curious: what Activity value has been reported for Cc1ccc2c(c1)CN(CCCC1OC(=O)c3ccccc31)CC2 (stereo not drawn) ?
Result :: 32.4

Query :: I am curious: what Activity value has been reported for O=C1OC(CCCN2Cc3ccccc3C2)c2ccccc21 (stereo not drawn) ?
Result :: 26.7

Query :: I am curious: what Activity value has been reported for O=C1OC(CCCN2CCc3ccccc3C2c2ccccc2)c2ccccc21 (stereo not drawn) ?
Result :: 36.4

Query :: I am curious: what Activity value has been reported for O=C1OC(CCCN2CCN(c3ncccn3)CC2)c2ccccc21 (stereo not drawn) ?
Result :: 30.9

Query :: I am curious: what Activity value has been reported for O=C1OC(CCCN2CCN(c3csc4ccccc34)CC2)c2ccccc21 (stereo not drawn) ?
Result :: 36.6

Query :: I am curious: what Activity value has been reported for O=C1OC(CCCN2CCc3ccccc32)c2ccccc21 (stereo not drawn) ?
Result :: 24.5

Query :: I am curious: what Activity value has been reported for O=C1OC(CCCN2CCN(c3nsc4ccccc34)CC2)c2ccccc21 (stereo not drawn) ?
Result :: 15.7

====

parameter: Ki (nM)
Only the number, expressed in nM, is required.

Query :: Value wanted: Ki (Glutamate receptor ionotropic, NMDA 2B (Rattus norvegicus, UniProt Q00960)) of entry COc1ccc2[nH]c(C(=O)N3CCN(CCCC4OC(=O)c5ccccc54)CC3)cc2c1 (centres undefined)
Result :: 26

Query :: Value wanted: Ki (Glutamate receptor ionotropic, NMDA 2B (Rattus norvegicus, UniProt Q00960)) of entry O=C(O)c1ccccc1C(O)CCCN1CCN(C(=O)C2Cc3cccc(Cl)c3N2)CC1 (centres undefined)
Result :: 1.28

Query :: Value wanted: Ki (Glutamate receptor ionotropic, NMDA 2B (Rattus norvegicus, UniProt Q00960)) of entry O=C1OC(CCCN2CCN(C(=O)c3cc4cccnc4[nH]3)CC2)c2ccccc21 (centres undefined)
Result :: 49.7

Query :: Value wanted: Ki (Glutamate receptor ionotropic, NMDA 2B (Rattus norvegicus, UniProt Q00960)) of entry Cc1ccc(N2CCN(CCCC3OC(=O)c4ccccc43)CC2)cc1C (centres undefined)
Result :: 29.2

====

- system_under_test: Glutamate receptor ionotropic, NMDA 2B (Rattus norvegicus)
- method_summary: Antagonist activity at rat GluN2B NMDA receptor at 50 nM incubated for 120 mins by competitive binding assay relative to control
- Set-up: scale not given: the % may be the effect or the level left
- recorded_conditions: filed as antagonist
parameter: Activity (%)
Only the number, expressed in %, is required.

Query :: I am curious: what Activity value has been reported for O=C1OC(CCCN2CCc3ccccc32)c2ccccc21 (stereo not given) ?
Result :: 47.1

Query :: I am curious: what Activity value has been reported for O=C1OC(CCCN2CCN(c3ccccn3)CC2)c2ccccc21 (stereo not given) ?
Result :: 42.2

Query :: I am curious: what Activity value has been reported for O=C1OC(CCCN2C[C@H]3C[C@@]3(c3ccc(Cl)c(Cl)c3)C2)c2ccccc21 (stereo not given in full) ?
Result :: 76

Query :: I am curious: what Activity value has been reported for O=C1OC(CCCN2CCN(c3ccccc3)CC2)c2ccccc21 (stereo not given) ?
Result :: 75.4

Query :: I am curious: what Activity value has been reported for NC(=O)c1coc2ccc(N3CCN(CCCC4OC(=O)c5ccccc54)CC3)cc12 (stereo not given) ?
Result :: 47.1

====

- method_summary: Cytotoxicity against mouse primary neuron cells assessed as reduction in cell viability incubated for 48 hrs by CCK-8 assay
parameter: IC50 at 48 h

Query :: I am curious: what IC50 at 48 h value has been reported for CN(C)CCCC1OC(=O)c2ccccc21 (stereo unspecified) ?
Result :: > 300 µM

====

parameter: log10(Ki) (log10 of the value in µM)
Note: values are log10 of Ki expressed in µM.

Query :: Value wanted: log10(Ki) (Glutamate receptor ionotropic, NMDA 2B (Rattus norvegicus)) of entry O=C1OC(CCCN2CCN(C(=O)c3nc4ccccc4[nH]3)CC2)c2ccccc21 (stereo unspecified)
Result :: -1.13

Query :: Value wanted: log10(Ki) (Glutamate receptor ionotropic, NMDA 2B (Rattus norvegicus)) of entry COc1cccc(N2CCN(CCCC3OC(=O)c4ccccc43)CC2)c1 (stereo unspecified)
Result :: -1.51

Query :: Value wanted: log10(Ki) (Glutamate receptor ionotropic, NMDA 2B (Rattus norvegicus)) of entry Cc1ccc(N2CCN(CCCC3OC(=O)c4ccccc43)CC2)cc1 (stereo unspecified)
Result :: -2.21

Query :: Value wanted: log10(Ki) (Glutamate receptor ionotropic, NMDA 2B (Rattus norvegicus)) of entry O=C1OC(CCCN2CCN(c3ccc(F)cc3)CC2)c2ccccc21 (stereo unspecified)
Result :: -2.03

Query :: Value wanted: log10(Ki) (Glutamate receptor ionotropic, NMDA 2B (Rattus norvegicus)) of entry Cc1ccccc1N1CCN(CCCC2OC(=O)c3ccccc32)CC1 (stereo unspecified)
Result :: -1.95

Query :: Value wanted: log10(Ki) (Glutamate receptor ionotropic, NMDA 2B (Rattus norvegicus)) of entry CS(=O)(=O)Nc1ccc2c(c1)C(=O)OC2CCCN1CCN(C(=O)c2ccc(C(F)(F)F)cc2)CC1 (stereo unspecified)
Result :: -1.82

Query :: Value wanted: log10(Ki) (Glutamate receptor ionotropic, NMDA 2B (Rattus norvegicus)) of entry COc1ccccc1N1CCN(CCCC2OC(=O)c3ccccc32)CC1 (stereo unspecified)
Result :: -2.09

Query :: Value wanted: log10(Ki) (Glutamate receptor ionotropic, NMDA 2B (Rattus norvegicus)) of entry O=C1OC(CCCN2CCN(c3ccc(O)cc3)CC2)c2ccc(O)cc21 (stereo unspecified)
Result :: -2.20

Query :: Value wanted: log10(Ki) (Glutamate receptor ionotropic, NMDA 2B (Rattus norvegicus)) of entry Cc1ccc(C(=O)N2CCN(CCCC3OC(=O)c4ccccc43)CC2)cc1 (stereo unspecified)
Result :: -2.87

Query :: Value wanted: log10(Ki) (Glutamate receptor ionotropic, NMDA 2B (Rattus norvegicus)) of entry O=C1OC(CCCN2CCN(C(=O)c3cc4ccc(Cl)cc4[nH]3)CC2)c2ccccc21 (stereo unspecified)
Result :: -1.78

Query :: Value wanted: log10(Ki) (Glutamate receptor ionotropic, NMDA 2B (Rattus norvegicus)) of entry O=C1OC(CCCN2CCN(c3ccccc3F)CC2)c2ccccc21 (stereo unspecified)
Result :: -1.63

Query :: Value wanted: log10(Ki) (Glutamate receptor ionotropic, NMDA 2B (Rattus norvegicus)) of entry Cc1ccc(N2CCN(CCCC3OC(=O)c4cc(NS(C)(=O)=O)ccc43)CC2)cc1 (stereo unspecified)
Result :: -1.91

Query :: Value wanted: log10(Ki) (Glutamate receptor ionotropic, NMDA 2B (Rattus norvegicus)) of entry CS(=O)(=O)Nc1ccc2c(c1)C(=O)OC2CCCN1CCN(c2ccc(O)cc2)CC1 (stereo unspecified)
Result :: -1.71

Query :: Value wanted: log10(Ki) (Glutamate receptor ionotropic, NMDA 2B (Rattus norvegicus)) of entry COc1ccc(N2CCN(CCCC3OC(=O)c4ccccc43)CC2)cc1 (stereo unspecified)
Result :: -1.61

Query :: Value wanted: log10(Ki) (Glutamate receptor ionotropic, NMDA 2B (Rattus norvegicus)) of entry COc1cccc(C(=O)N2CCN(CCCC3OC(=O)c4ccccc43)CC2)c1 (stereo unspecified)
Result :: -1.46

Query :: Value wanted: log10(Ki) (Glutamate receptor ionotropic, NMDA 2B (Rattus norvegicus)) of entry O=C1OC(CCCN2CCN(C(=O)c3ccc(Cl)cc3)CC2)c2ccccc21 (stereo unspecified)
Result :: -1.90

Query :: Value wanted: log10(Ki) (Glutamate receptor ionotropic, NMDA 2B (Rattus norvegicus)) of entry O=C1OC(CCCN2CCN(C(=O)c3ccc(C(F)(F)F)cc3)CC2)c2ccccc21 (stereo unspecified)
Result :: -2.59

Query :: Value wanted: log10(Ki) (Glutamate receptor ionotropic, NMDA 2B (Rattus norvegicus)) of entry Cc1cccc(N2CCN(CCCC3OC(=O)c4ccccc43)CC2)c1 (stereo unspecified)
Result :: -1.43

Query :: Value wanted: log10(Ki) (Glutamate receptor ionotropic, NMDA 2B (Rattus norvegicus)) of entry CS(=O)(=O)Nc1ccc2c(c1)C(=O)OC2CCCN1CCN(C(=O)c2cc3cccc(Cl)c3[nH]2)CC1 (stereo unspecified)
Result :: -2.37

Query :: Value wanted: log10(Ki) (Glutamate receptor ionotropic, NMDA 2B (Rattus norvegicus)) of entry Cc1ccc(C(=O)N2CCN(CCCC3OC(=O)c4cc(NS(C)(=O)=O)ccc43)CC2)cc1 (stereo unspecified)
Result :: -1.88

Query :: Value wanted: log10(Ki) (Glutamate receptor ionotropic, NMDA 2B (Rattus norvegicus)) of entry O=C1OC(CCCN2CCN(C(=O)c3ccccc3)CC2)c2ccccc21 (stereo unspecified)
Result :: -1.48
